ASSAY TARGET: T1, histidine-tagged human Siglec-7 (NovoProtein) (human, UniProt Q9Y286 19-353)
T1 construct: Bought protein; also called recombinant human Siglec-7; recombinant Siglec-7; not shown: histidine tag
T1 sequence (Q9Y286 19-353 limits assumed): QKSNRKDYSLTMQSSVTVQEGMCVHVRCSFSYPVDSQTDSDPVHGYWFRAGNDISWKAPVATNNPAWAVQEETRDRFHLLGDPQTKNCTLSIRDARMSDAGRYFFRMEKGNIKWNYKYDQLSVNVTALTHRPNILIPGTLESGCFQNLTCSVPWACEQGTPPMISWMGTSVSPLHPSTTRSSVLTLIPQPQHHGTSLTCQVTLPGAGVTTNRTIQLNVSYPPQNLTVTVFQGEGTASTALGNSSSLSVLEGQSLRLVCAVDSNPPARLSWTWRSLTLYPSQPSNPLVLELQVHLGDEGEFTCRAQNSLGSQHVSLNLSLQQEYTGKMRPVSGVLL
ASSAY SUMMARY: BLI, antibody captured
TEST READOUT: kon (M⁻¹ s⁻¹)
// note: answer is a bare numeric in M⁻¹ s⁻¹

// worked examples, kon included
• S7AB-H8.21 (antibody, V domains shown) VH: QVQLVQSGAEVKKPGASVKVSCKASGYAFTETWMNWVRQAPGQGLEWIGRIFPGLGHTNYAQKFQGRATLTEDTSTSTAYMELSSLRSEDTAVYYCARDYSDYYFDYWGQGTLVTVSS VL: DIQMTQSPSSLSASVGDRVTITCRASEDINTYLNWYQQKPGKAPKLLIYYTSRLHSGVPSRFSGSGSGTDYTLTISSLQPEDFATYYCQQGGTLPWTFGQGTKLEIK = 133000
• S7AB-H8.30 (antibody, V domains shown) VH: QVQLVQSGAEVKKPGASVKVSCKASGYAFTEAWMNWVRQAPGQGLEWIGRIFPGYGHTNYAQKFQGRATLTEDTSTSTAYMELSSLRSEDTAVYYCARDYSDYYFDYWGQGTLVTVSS VL: DIQMTQSPSSLSASVGDRVTITCRASQDANTYLNWYQQKPGKAPKLLIYYTSRLHSGVPSRFSGSGSGTDYTLTISSLQPEDFATYYCQQGNLLPWTFGQGTKLEIK = 105000
• S7AB-H8.37 (antibody, V domains shown) VH: QVQLVQSGAEVKKPGASVKVSCKASGYAFTMAWMNWVRQAPGQGLEWIGRIFPGYGHTNYAQKFQGRATLTEDTSTSTAYMELSSLRSEDTAVYYCARDYSDYYFDYWGQGTLVTVSS VL: DIQMTQSPSSLSASVGDRVTITCRGSQDINTYLNWYQQKPGKAPKLLIYYTSRLHSGVPSRFSGSGSGTDYTLTISSLQPEDFATYYCQQGNVLPWTFGQGTKLEIK = 186000
• S7AB-H8.33 (antibody, V domains shown) VH: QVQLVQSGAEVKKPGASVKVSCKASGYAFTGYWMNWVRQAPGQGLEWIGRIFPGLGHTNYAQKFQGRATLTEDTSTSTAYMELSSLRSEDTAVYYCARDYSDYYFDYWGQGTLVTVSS VL: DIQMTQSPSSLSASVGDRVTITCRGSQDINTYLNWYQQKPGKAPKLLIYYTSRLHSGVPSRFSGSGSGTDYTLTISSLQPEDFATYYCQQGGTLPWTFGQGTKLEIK = 235000
• S7AB-H8.2 (antibody, V domains shown) VH: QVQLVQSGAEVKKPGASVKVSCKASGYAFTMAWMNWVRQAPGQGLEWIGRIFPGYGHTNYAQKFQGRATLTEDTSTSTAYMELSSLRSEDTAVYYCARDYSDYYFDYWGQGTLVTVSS VL: DIQMTQSPSSLSASVGDRVTITCRGSQDINTYLNWYQQKPGKAPKLLIYYTSRLHSGVPSRFSGSGSGTDYTLTISSLQPEDFATYYCQQGNLLPWTFGQGTKLEIK = 142000

Query S7AB-H8.16 (antibody, V domains shown) VH: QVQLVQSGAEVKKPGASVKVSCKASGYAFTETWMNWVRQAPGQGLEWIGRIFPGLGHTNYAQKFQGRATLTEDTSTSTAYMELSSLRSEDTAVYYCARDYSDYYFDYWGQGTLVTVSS VL: DIQMTQSPSSLSASVGDRVTITCRGSQDTNTYLNWYQQKPGKAPKLLIYYTSRLHSGVPSRFSGSGSGTDYTLTISSLQPEDFATYYCQQGNTLPWTFGQGTKLEIK yields kon of 65400

get_value(item= S7AB-H8.17 (antibody, V domains shown) VH: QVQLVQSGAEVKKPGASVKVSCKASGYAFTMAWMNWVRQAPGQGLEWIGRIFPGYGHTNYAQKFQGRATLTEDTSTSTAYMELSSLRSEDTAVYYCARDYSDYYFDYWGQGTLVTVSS VL: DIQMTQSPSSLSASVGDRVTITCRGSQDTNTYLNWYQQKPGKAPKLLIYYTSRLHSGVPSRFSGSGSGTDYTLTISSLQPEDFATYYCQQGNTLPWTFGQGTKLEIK , readout=kon) returns 128000

Item: S7AB-H8.27 (antibody, V domains shown) VH: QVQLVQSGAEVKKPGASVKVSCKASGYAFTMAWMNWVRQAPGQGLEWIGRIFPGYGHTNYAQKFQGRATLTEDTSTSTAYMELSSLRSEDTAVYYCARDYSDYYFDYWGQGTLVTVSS VL: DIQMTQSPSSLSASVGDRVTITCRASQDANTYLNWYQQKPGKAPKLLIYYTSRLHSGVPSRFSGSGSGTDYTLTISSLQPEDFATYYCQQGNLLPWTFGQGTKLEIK | kon: 156000

Per the record, S7AB-H8.34 (antibody, V domains shown) VH: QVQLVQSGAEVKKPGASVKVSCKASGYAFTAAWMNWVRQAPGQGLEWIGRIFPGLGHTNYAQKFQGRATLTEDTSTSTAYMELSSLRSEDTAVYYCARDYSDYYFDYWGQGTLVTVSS VL: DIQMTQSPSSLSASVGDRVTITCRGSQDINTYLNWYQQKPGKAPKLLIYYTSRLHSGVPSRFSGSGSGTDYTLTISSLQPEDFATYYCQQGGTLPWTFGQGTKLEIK has kon of 119000

Value of measured kon for the entry S7AB-H8.42 (antibody, V domains shown) VH: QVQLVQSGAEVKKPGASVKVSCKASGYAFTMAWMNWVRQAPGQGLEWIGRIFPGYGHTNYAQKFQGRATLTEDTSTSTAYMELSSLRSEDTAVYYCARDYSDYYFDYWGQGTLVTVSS VL: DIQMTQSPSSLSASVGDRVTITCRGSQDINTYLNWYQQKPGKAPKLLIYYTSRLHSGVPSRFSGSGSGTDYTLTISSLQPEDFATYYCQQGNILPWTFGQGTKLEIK : 191000
